// MIC lookup, one value per entry
# Tested on: Staphylococcus aureus
# assay.notes: Compound tested for the activity against Staphylococcus aureus strain 3
# Type: functional
Peptide text beside a SMILES is read from it.

1) CC(C)C[C@H](NC(=O)[C@H](C)NC(=O)[C@H](CCCCN)NC(=O)[C@H](C)NC(=O)[C@H](CC(C)C)NC(=O)[C@H](CCCCN)NC(=O)[C@H](C)NC(=O)[C@H](CC(C)C)NC(=O)[C@H](CCCCN)NC(=O)[C@H](C)NC(=O)[C@H](CC(C)C)NC(=O)[C@H](CCCCN)NC(=O)[C@H](CCCCN)NC(=O)[C@H](C)NC(=O)[C@H](CC(C)C)NC(=O)[C@@H](N)CCCCN)C(=O)O (H-KLAKKLAKLAKLAKAL-OH) : > 100 µg/mL
2) CC(C)C[C@H](NC(=O)[C@H](Cc1c[nH]c2ccccc12)NC(=O)[C@H](CCCCN)NC(=O)[C@H](CCCCN)NC(=O)[C@@H](N)Cc1c[nH]c2ccccc12)C(=O)N[C@@H](Cc1c[nH]c2ccccc12)C(=O)N[C@@H](C)C(=O)N[C@@H](CCCCN)C(=O)N[C@@H](Cc1c[nH]c2ccccc12)C(=O)O (H-WKKWLWAKW-OH) : > 100 µg/mL
3) CC(C)C[C@H](NC(=O)[C@H](CCCCN)NC(=O)[C@H](CC(C)C)NC(=O)[C@H](Cc1c[nH]c2ccccc12)NC(=O)[C@H](CCCCN)NC(=O)[C@@H](N)CCCCN)C(=O)N[C@@H](Cc1c[nH]c2ccccc12)C(=O)N[C@@H](CCCCN)C(=O)N[C@@H](C)C(=O)N[C@@H](Cc1c[nH]c2ccccc12)C(=O)O (H-KKWLKLWKAW-OH) : > 100 µg/mL

Here's the next entry for you.
Report MIC, nothing else, for this compound: CC(C)C[C@H](NC(=O)[C@H](CCCCN)NC(=O)[C@H](CC(C)C)NC(=O)[C@H](Cc1c[nH]c2ccccc12)NC(=O)[C@H](CCCCN)NC(=O)[C@H](CCCCN)NC(=O)[C@H](C)NC(=O)[C@H](Cc1c[nH]c2ccccc12)NC(=O)[C@H](CCCCN)NC(=O)[C@H](CCCCN)NC(=O)[C@H](Cc1c[nH]c2ccccc12)NC(=O)[C@H](CC(C)C)NC(=O)[C@@H](N)CCCCN)C(=O)N[C@@H](Cc1c[nH]c2ccccc12)C(=O)N[C@@H](CCCCN)C(=O)N[C@@H](C)C(=O)N[C@@H](Cc1c[nH]c2ccccc12)C(=O)O (H-KLWKKWAKKWLKLWKAW-OH)
25 µg/mL

====

# System: Pseudomonas aeruginosa
# assay.notes: Compound tested for the antimicrobial activity against Pseudomonas aeruginosa strain 10
# Format: functional
Peptide text beside a SMILES is read from it.
value.type: MIC (µg/mL)
Field: numeric (µg/mL). Do not append units.

Item CC(C)C[C@H](NC(=O)[C@H](CCCCN)NC(=O)[C@H](CC(C)C)NC(=O)[C@H](Cc1ccccc1)NC(=O)[C@H](CCCCN)NC(=O)[C@H](CCCCN)NC(=O)[C@H](C)NC(=O)[C@H](Cc1ccccc1)NC(=O)[C@H](CCCCN)NC(=O)[C@H](CCCCN)NC(=O)[C@H](Cc1ccccc1)NC(=O)[C@H](CC(C)C)NC(=O)[C@@H](N)CCCCN)C(=O)N[C@@H](Cc1ccccc1)C(=O)N[C@@H](CCCCN)C(=O)N[C@@H](C)C(=O)N[C@@H](Cc1c[nH]c2ccccc12)C(=O)O (H-KLFKKFAKKFLKLFKAW-OH) : provide MIC
50

====

# key: entry, value: MIC
# Test system: Pseudomonas aeruginosa
# assay.notes: Compound tested for the antimicrobial activity against Pseudomonas aeruginosa strain 3
# Type: functional
Peptide text beside a SMILES is read from it.
The answer is to be given in µg/mL; state only the numeric part.

1. CC(C)C[C@H](NC(=O)[C@H](CCCCN)NC(=O)[C@H](CC(C)C)NC(=O)[C@H](Cc1c[nH]c2ccccc12)NC(=O)[C@H](CCCCN)NC(=O)[C@@H](N)CCCCN)C(=O)N[C@@H](Cc1c[nH]c2ccccc12)C(=O)N[C@@H](CCCCN)C(=O)N[C@@H](C)C(=O)N[C@@H](Cc1c[nH]c2ccccc12)C(=O)O (H-KKWLKLWKAW-OH) : 50
2. CC(C)C[C@H](NC(=O)[C@H](Cc1c[nH]c2ccccc12)NC(=O)[C@H](CCCCN)NC(=O)[C@H](CCCCN)NC(=O)[C@@H](N)Cc1c[nH]c2ccccc12)C(=O)N[C@@H](Cc1c[nH]c2ccccc12)C(=O)N[C@@H](C)C(=O)N[C@@H](CCCCN)C(=O)N[C@@H](Cc1c[nH]c2ccccc12)C(=O)O (H-WKKWLWAKW-OH) : 50
3. CC(C)C[C@H](NC(=O)[C@H](CCCCN)NC(=O)[C@H](CC(C)C)NC(=O)[C@H](Cc1c[nH]c2ccccc12)NC(=O)[C@H](CCCCN)NC(=O)[C@H](CCCCN)NC(=O)[C@H](C)NC(=O)[C@H](Cc1c[nH]c2ccccc12)NC(=O)[C@H](CCCCN)NC(=O)[C@H](CCCCN)NC(=O)[C@H](Cc1c[nH]c2ccccc12)NC(=O)[C@H](CC(C)C)NC(=O)[C@@H](N)CCCCN)C(=O)N[C@@H](Cc1c[nH]c2ccccc12)C(=O)N[C@@H](CCCCN)C(=O)N[C@@H](C)C(=O)N[C@@H](Cc1c[nH]c2ccccc12)C(=O)O (H-KLWKKWAKKWLKLWKAW-OH) : 12.5

Okay, now this compound:
Output measured MIC for this item: CC(C)C[C@H](NC(=O)[C@H](C)NC(=O)[C@H](CCCCN)NC(=O)[C@H](C)NC(=O)[C@H](CC(C)C)NC(=O)[C@H](CCCCN)NC(=O)[C@H](C)NC(=O)[C@H](CC(C)C)NC(=O)[C@H](CCCCN)NC(=O)[C@H](C)NC(=O)[C@H](CC(C)C)NC(=O)[C@H](CCCCN)NC(=O)[C@H](CCCCN)NC(=O)[C@H](C)NC(=O)[C@H](CC(C)C)NC(=O)[C@@H](N)CCCCN)C(=O)O (H-KLAKKLAKLAKLAKAL-OH)
3.12

====

Overview of reported MIC across a group of compounds:
# Test system: Pseudomonas aeruginosa
# assay.notes: Compound tested for the antimicrobial activity against Pseudomonas aeruginosa strain ATCC 25916
# Format: functional
Peptide text beside a SMILES is read from it.
Just the number in µg/mL, nothing appended.

1) CC(C)C[C@H](NC(=O)[C@H](C)NC(=O)[C@H](CCCCN)NC(=O)[C@H](C)NC(=O)[C@H](CC(C)C)NC(=O)[C@H](CCCCN)NC(=O)[C@H](C)NC(=O)[C@H](CC(C)C)NC(=O)[C@H](CCCCN)NC(=O)[C@H](C)NC(=O)[C@H](CC(C)C)NC(=O)[C@H](CCCCN)NC(=O)[C@H](CCCCN)NC(=O)[C@H](C)NC(=O)[C@H](CC(C)C)NC(=O)[C@@H](N)CCCCN)C(=O)O (H-KLAKKLAKLAKLAKAL-OH) : 6.25

In the following, a different compound is considered.
Return value of MIC for input CC(C)C[C@H](NC(=O)[C@H](CCCCN)NC(=O)[C@H](CC(C)C)NC(=O)[C@H](Cc1c[nH]c2ccccc12)NC(=O)[C@H](CCCCN)NC(=O)[C@H](CCCCN)NC(=O)[C@H](C)NC(=O)[C@H](Cc1c[nH]c2ccccc12)NC(=O)[C@H](CCCCN)NC(=O)[C@H](CCCCN)NC(=O)[C@H](Cc1c[nH]c2ccccc12)NC(=O)[C@H](CC(C)C)NC(=O)[C@@H](N)CCCCN)C(=O)N[C@@H](Cc1c[nH]c2ccccc12)C(=O)N[C@@H](CCCCN)C(=O)N[C@@H](C)C(=O)N[C@@H](Cc1c[nH]c2ccccc12)C(=O)O (H-KLWKKWAKKWLKLWKAW-OH) , no commentary.
3.12

====

# Tested on: Pseudomonas aeruginosa
# assay.notes: Compound tested for the antimicrobial activity against Pseudomonas aeruginosa strain 9
# Format: functional
Peptide text beside a SMILES is read from it.
value.type: MIC

Recorded MIC, per entry:
1) CC(C)C[C@H](NC(=O)[C@H](CCCCN)NC(=O)[C@H](CC(C)C)NC(=O)[C@H](Cc1c[nH]c2ccccc12)NC(=O)[C@H](CCCCN)NC(=O)[C@H](CCCCN)NC(=O)[C@H](C)NC(=O)[C@H](Cc1c[nH]c2ccccc12)NC(=O)[C@H](CCCCN)NC(=O)[C@H](CCCCN)NC(=O)[C@H](Cc1c[nH]c2ccccc12)NC(=O)[C@H](CC(C)C)NC(=O)[C@@H](N)CCCCN)C(=O)N[C@@H](Cc1c[nH]c2ccccc12)C(=O)N[C@@H](CCCCN)C(=O)N[C@@H](C)C(=O)N[C@@H](Cc1c[nH]c2ccccc12)C(=O)O (H-KLWKKWAKKWLKLWKAW-OH) : > 100 µg/mL
2) CC(C)C[C@H](NC(=O)[C@H](Cc1c[nH]c2ccccc12)NC(=O)[C@H](CCCCN)NC(=O)[C@H](CCCCN)NC(=O)[C@@H](N)Cc1c[nH]c2ccccc12)C(=O)N[C@@H](Cc1c[nH]c2ccccc12)C(=O)N[C@@H](C)C(=O)N[C@@H](CCCCN)C(=O)N[C@@H](Cc1c[nH]c2ccccc12)C(=O)O (H-WKKWLWAKW-OH) : > 100 µg/mL

Please find the next compound below.
Report measured MIC; entry is CC(C)C[C@H](NC(=O)[C@H](CCCCN)NC(=O)[C@H](CC(C)C)NC(=O)[C@H](Cc1c[nH]c2ccccc12)NC(=O)[C@H](CCCCN)NC(=O)[C@@H](N)CCCCN)C(=O)N[C@@H](Cc1c[nH]c2ccccc12)C(=O)N[C@@H](CCCCN)C(=O)N[C@@H](C)C(=O)N[C@@H](Cc1c[nH]c2ccccc12)C(=O)O (H-KKWLKLWKAW-OH)
> 100 µg/mL

Where these numbers come from: ChEMBL document CHEMBL1126653
